Organism: Oryctolagus cuniculus
Experiment: Activation of rabbit skeletal muscle PP2A catalytic subunit at 19 to 395 uM using [32P]MLC20 as substrate pretreated for 10 mins followed by substrate addition measured after 10 mins by scintillation counting method relative to control
The source made the active and inactive calls. The rule behind the calls is not given here.
value kind: Activity

input: Suppose we examine the compound CC(=O)N[C@@H]1[C@@H](OC(C)=O)[C@H](OC(C)=O)[C@@H](COC(C)=O)O[C@H]1[Se]C(=O)c1ccc(C)cc1 ; what Activity value has been reported?
output: Active

input: # input compound: CC(=O)OC[C@H]1O[C@@H]([Se]C(=O)c2ccc(C)cc2)[C@H](OC(C)=O)[C@@H](OC(C)=O)[C@@H]1OC(C)=O ; wanted: its Activity
output: Active

These measurements were taken from ChEMBL document CHEMBL4219114.
